Target: wild-type Epidermal Growth Factor Receptor (EGFR) (Homo sapiens (Human))
Sequence (P00533 669-1210): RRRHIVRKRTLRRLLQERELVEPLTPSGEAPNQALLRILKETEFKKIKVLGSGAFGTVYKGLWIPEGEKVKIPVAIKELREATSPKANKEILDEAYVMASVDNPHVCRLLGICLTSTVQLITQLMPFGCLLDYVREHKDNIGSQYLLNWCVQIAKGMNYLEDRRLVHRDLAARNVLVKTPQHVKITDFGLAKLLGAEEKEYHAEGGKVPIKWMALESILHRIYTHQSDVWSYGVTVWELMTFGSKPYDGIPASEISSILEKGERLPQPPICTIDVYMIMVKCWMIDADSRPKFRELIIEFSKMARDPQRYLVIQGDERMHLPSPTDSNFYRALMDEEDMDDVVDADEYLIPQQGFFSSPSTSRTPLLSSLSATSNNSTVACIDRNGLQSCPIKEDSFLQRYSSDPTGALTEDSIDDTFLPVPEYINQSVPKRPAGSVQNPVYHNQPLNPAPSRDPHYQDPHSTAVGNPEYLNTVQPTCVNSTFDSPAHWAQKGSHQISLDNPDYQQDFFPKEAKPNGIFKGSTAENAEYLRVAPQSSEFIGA
Assay: WT-EGFR Kinase Assay (TR-FRET, 2 mM ATP)
Format: biochemical
Conditions: EGFR Wildtyp 2 mM ATP IC50 [mol/l] (median), median or individual measurements
endpoint label: IC50

Solved cases (6 shown):
INSERT INTO assay_data (molecule, assay_system, recorded_value) VALUES
  ('CC(C(=O)Nc1cc(-c2[nH]c3c(c2-c2ccccc2)C(=O)NCC3)ccn1)c1ccc(F)cc1 (racemic) [Example 74]', 'wild-type Epidermal Growth Factor Receptor (EGFR) (Homo sapiens (Human))', '> 20 µM'),
  ('O=C(Nc1cc(-c2[nH]c3ccn(C4CC4)c(=O)c3c2-c2ccccc2)ccn1)C(CC(F)F)c1ccc(F)cc1 (single isomer, unassigned) [Example 157]', 'wild-type Epidermal Growth Factor Receptor (EGFR) (Homo sapiens (Human))', '> 20 µM'),
  ('Cc1cn(C)c(=O)c2c(-c3ccc(F)cc3)c(-c3ccnc(NC(=O)C(C)c4ccc(F)cc4)c3)[nH]c12 (racemic) [Example 030]', 'wild-type Epidermal Growth Factor Receptor (EGFR) (Homo sapiens (Human))', '> 20 µM'),
  ('O=C(Nc1cc(-c2[nH]c3ccn(C4CC4)c(=O)c3c2-c2ccccn2)ccn1)C(CC(F)F)c1ccc(F)cc1 (racemic) [Example 160]', 'wild-type Epidermal Growth Factor Receptor (EGFR) (Homo sapiens (Human))', '> 20 µM'),
  ('CC(C(=O)Nc1cc(-c2[nH]c3ccn(C)c(=O)c3c2-c2ccc(F)cc2)ccn1)c1ccc(F)cc1 (racemic) [Example 100]', 'wild-type Epidermal Growth Factor Receptor (EGFR) (Homo sapiens (Human))', '> 20 µM'),
  ('CN1CC(C)(C)c2[nH]c(-c3ccnc(NC(=O)C(CC(F)F)c4ccc(F)cc4)c3)c(-c3ccccc3)c2C1=O (single isomer, unassigned; (-)) [Example 151]', 'wild-type Epidermal Growth Factor Receptor (EGFR) (Homo sapiens (Human))', '> 20 µM');

response.value for CC(C(=O)Nc1cc(-c2[nH]c3ccn(C)c(=O)c3c2-c2ccc(F)c(F)c2)ccn1)c1ccc(F)cc1 (racemic) [Example 114] (field: IC50) = > 20 µM

response.value for CC(C(=O)Nc1cc(-c2[nH]c3c(c2-c2ccccc2)C(=O)NCC3(C)C)ccn1)c1ccc(F)cc1 (racemic) [Example 046] (field: IC50) = > 20 µM

response.value for Cc1cccc(-c2c(-c3ccnc(NC(=O)C(C)c4ccc(F)cc4)c3)[nH]c3c2C(=O)NC(C)(C)C3)c1 (racemic) [Example 88] (field: IC50) = > 20 µM
